- Assayed Target: Kinesin-like protein KIF15 (Homo sapiens, UniProt Q9NS87)
- Sequence (Q9NS87 whole entry): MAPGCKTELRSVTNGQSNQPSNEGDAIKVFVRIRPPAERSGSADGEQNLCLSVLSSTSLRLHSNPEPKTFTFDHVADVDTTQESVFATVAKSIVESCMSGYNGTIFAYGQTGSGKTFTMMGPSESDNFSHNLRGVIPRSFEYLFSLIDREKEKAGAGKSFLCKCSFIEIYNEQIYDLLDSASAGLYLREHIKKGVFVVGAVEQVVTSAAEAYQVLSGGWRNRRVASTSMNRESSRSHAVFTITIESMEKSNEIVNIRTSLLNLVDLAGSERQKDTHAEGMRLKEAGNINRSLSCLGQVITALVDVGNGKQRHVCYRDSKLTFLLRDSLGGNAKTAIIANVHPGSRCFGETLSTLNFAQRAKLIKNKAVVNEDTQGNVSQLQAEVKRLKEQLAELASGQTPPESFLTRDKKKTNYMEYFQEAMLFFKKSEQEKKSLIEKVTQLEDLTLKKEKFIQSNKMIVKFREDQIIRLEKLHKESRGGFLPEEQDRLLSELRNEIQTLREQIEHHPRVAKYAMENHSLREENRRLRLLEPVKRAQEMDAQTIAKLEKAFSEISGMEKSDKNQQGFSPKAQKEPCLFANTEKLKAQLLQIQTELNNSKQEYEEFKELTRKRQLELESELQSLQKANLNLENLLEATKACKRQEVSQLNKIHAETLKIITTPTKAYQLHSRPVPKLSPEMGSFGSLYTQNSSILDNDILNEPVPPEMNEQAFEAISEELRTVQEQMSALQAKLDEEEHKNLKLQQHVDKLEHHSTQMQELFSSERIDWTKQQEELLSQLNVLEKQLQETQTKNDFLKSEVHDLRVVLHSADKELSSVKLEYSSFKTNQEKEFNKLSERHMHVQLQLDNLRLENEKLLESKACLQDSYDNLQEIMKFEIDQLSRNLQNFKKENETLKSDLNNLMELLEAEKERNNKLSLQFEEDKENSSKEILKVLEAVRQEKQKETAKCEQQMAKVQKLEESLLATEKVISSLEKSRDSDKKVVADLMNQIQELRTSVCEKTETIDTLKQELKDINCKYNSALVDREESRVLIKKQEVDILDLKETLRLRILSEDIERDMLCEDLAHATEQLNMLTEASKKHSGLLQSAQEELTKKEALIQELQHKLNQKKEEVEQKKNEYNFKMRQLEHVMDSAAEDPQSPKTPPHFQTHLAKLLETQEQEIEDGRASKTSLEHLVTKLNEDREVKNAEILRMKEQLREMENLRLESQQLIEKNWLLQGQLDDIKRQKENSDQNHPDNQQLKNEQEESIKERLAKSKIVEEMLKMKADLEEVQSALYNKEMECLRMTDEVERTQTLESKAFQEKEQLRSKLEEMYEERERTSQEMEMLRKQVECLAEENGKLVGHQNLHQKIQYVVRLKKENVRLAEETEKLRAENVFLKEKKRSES
- Assay Method Text: Inhibition of recombinant His6-tagged Kif15 (N700 residues) (unknown origin) expressed in HeLa cells assessed as reduction in Alexa-594 labelled microtubule gliding measured every 2 secs for 20 secs by epifluorescence microscopic analysis
- Type: cell-based
Could you please report measured IC50 for the items listed next?
Give bare numbers, in nM.

CCOC(=O)c1sc(NC(=O)[C@H](C(C)C)n2c(=O)[nH]c3ccccc3c2=O)nc1C 200

Let us move to another entry and its IC50.
Which measured IC50 value corresponds to "O=C1Nc2ccc(C(=O)c3ccco3)cc2/C1=C/c1cc(Cl)c(O)c(Cl)c1" ?
750
